All values here come from patent US20210070881A1.

The reader will find reported kon values listed item by item below.
target: T1, recombinant BACE1 (BACE1 extracellular domain, R&D Systems Cat#931-AS) (UniProt P56817 22-457); experiment: SPR Biacore
T1 construct: extracellular domain; also called BACE1 extracellular domain protein
T1 sequence (P56817 22-457): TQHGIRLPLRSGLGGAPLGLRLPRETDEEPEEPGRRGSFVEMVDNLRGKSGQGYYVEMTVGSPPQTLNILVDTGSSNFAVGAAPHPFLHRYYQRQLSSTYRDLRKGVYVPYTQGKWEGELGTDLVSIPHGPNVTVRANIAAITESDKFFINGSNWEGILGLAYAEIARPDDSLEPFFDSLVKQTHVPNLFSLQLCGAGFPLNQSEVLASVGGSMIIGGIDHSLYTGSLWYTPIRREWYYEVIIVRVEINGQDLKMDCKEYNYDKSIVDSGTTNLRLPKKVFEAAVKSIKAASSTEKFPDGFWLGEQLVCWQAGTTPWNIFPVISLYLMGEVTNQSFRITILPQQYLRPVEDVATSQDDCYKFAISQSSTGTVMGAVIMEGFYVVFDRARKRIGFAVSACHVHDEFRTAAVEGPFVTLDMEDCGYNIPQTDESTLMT
# value in M⁻¹ s⁻¹; strip the unit string

Solved cases (2 shown):
BINDER: 2H8.25 (antibody, human IgG1, V domains shown, human IgG1/kappa; also called 2H8_HC + 2H8_LCvar5) VH: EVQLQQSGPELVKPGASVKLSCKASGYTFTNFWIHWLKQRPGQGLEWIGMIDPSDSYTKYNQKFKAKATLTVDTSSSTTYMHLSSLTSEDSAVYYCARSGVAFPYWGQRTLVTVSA VL: DIVMTQSQKFMSTSVGDRVSVTCKASQNVGTNVAWYQQKSGQSPKALIYSASHRYSGVPDRFTGSGSGTDFTLTISNVQSEDLAEYFCQQYNSYPYTFGGGTKLEIK
UNIT INFO: M⁻¹ s⁻¹
kon: 16500

BINDER: 2H8.20 (antibody, human IgG1, V domains shown, human IgG1/kappa; also called 2H8_HCvar2 + 2H8_LCvar4) VH: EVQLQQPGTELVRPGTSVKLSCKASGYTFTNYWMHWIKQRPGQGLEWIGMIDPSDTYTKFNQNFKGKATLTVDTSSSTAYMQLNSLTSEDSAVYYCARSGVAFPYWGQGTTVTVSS VL: DIVMTQSQKFMSTSVGDRVSITCKASQNVGTNVAWYQQKPGQSPKALIYSASYRYSGVPDRFTGSGSGTDFTLTISNVQSEDLAEYFCQQYNSYPYTFGGGTKLEIK
UNIT INFO: M⁻¹ s⁻¹
kon: 15800

Inquiry: Which kon is listed for 2H8.18 (antibody, human IgG1, V domains shown, human IgG1/kappa; also called 2H8_HCvar6 + 2H8_LCvar3) VH: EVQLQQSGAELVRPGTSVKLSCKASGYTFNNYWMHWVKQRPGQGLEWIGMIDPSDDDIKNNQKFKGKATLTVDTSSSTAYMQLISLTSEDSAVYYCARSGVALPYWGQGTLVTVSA VL: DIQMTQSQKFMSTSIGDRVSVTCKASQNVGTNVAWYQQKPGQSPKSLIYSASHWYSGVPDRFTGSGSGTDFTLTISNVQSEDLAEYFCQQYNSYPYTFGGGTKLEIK ?
Reply text: 12000
